# experimentNotes: Stability in human hepatocytes
# Assay type: in vitro ADME
attributeMeasured: half-life

# lookup: half-life of CN(C)CCNC(=O)c1ccc(-c2ccc(-c3ccc(Cl)cc3)n2-c2ccccc2C(F)(F)F)cc1
2.27 h

* * *

# experimentNotes: Pharmacokinetic study, oral administration in mice
# Assay type: in vivo, mouse
# appliedConditions: mouse, plasma, 10 mg/kg oral
attributeMeasured: bioavailability

# lookup: bioavailability of CN(C)CCNC(=O)c1ccc(-c2ccc(-c3ccc(Cl)cc3)n2-c2ccccc2C(F)(F)F)cc1
> 90%
